Assay: Cmax in cynomolgus monkey at 3.8 mg/kg, po administered as single dose
Type: ADME, organism-based, Macaca fascicularis
Design: dose 3.8 mg/kg, route oral
Conditions: in vivo
quantity_kind: Cmax (µg/mL)
Supply the numeric figure in µg/mL, leaving out any unit text.

Q: Name the reported Cmax value associated with the compound CCCCCCCCOc1ccc(-c2nnc([C@@](C)(N)CO)s2)cc1C(F)(F)F
A: 0.0509

----------
Biological target: Sphingosine 1-phosphate receptor 4 (Homo sapiens, UniProt O95977)
Sequence (O95977 whole entry): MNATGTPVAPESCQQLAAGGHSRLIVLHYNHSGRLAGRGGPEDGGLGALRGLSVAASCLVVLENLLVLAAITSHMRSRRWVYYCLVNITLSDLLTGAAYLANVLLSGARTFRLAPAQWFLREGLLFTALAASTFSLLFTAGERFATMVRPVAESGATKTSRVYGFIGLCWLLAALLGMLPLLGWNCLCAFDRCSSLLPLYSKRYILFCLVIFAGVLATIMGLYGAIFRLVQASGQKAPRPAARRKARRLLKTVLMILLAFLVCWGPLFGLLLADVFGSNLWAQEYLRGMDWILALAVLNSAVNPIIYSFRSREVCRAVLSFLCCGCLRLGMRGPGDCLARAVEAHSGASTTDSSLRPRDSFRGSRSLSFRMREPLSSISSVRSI
Experiment: Agonist activity at human S1P4R expressed in HEK293T cells assessed as [35S]GTPgammaS binding after 30 mins by scintillation counting
quantity_kind: EC50 (nM)
# value in nM; strip the unit string

Q: GET /values?readout=EC50&item= CCCCCCCCOc1ccc(-c2cnc([C@@](C)(N)COP(=O)(O)O)s2)cc1C(F)(F)F
A: 3.6

Q: Fill in the blank: the reported EC50 of CCCCCCCCCCCCC/C=C/[C@@H](O)[C@@H](N)COP(=O)(O)O is ____.
A: 13

Q: Which EC50 reading was recorded for the compound CCCCCCCCOc1ccc(-c2nnc([C@@](C)(N)COP(=O)(O)O)s2)cc1C(F)(F)F ?
A: 4.57

----------
Target: Sphingosine 1-phosphate receptor 3 (Homo sapiens)
Sequence (Q99500 whole entry, looked up): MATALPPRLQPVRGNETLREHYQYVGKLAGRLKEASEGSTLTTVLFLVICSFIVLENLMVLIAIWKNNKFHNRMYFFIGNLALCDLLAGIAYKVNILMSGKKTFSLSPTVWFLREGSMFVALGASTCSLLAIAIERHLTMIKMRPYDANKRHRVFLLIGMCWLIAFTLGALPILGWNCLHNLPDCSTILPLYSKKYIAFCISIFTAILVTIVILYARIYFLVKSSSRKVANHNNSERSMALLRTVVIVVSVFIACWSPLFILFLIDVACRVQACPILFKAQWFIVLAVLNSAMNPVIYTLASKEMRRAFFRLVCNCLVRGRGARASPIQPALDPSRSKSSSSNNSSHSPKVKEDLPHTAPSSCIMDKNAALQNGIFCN
Assay: Agonist activity at S1P3R (unknown origin) assessed as [33P] binding activity
Field: log10 of Activity. Provide a value for each of the molecules that follow.
Values are log10 of Activity in µM.

Q: Could you tell me which log10 of Activity is on file for CCCCCCCCOc1ccc(-c2nnc([C@@](C)(N)COP(=O)(O)O)s2)cc1C(F)(F)F ?
A: 0.28

Q: Would you kindly share the measured log10 of Activity for CCCCCCCCOc1ccc(-c2cnc([C@@](C)(N)COP(=O)(O)O)[nH]2)cc1C(F)(F)F ?
A: 0.69

Q: Find the recorded log10 of Activity belonging to C[C@](N)(COP(=O)(O)O)c1nnc(-c2ccc(OCc3ccc(-c4ccccc4)cc3)c(C(F)(F)F)c2)s1 and report it.
A: 0.65

Q: Quick check: log10 of Activity of C[C@](N)(COP(=O)(O)O)c1ncc(-c2ccc(OCc3ccc(-c4ccccc4)cc3)c(C(F)(F)F)c2)s1 ?
A: -0.06

Q: Given the molecule C[C@](N)(COP(=O)(O)O)c1nc(-c2ccc(OCc3ccc(-c4ccccc4)cc3)c(C(F)(F)F)c2)c[nH]1 , what is its reported log10 of Activity?
A: 0.87

Q: Need log10 of Activity, item Cc1nc([C@@](C)(N)COP(=O)(O)O)[nH]c1-c1ccc(OCc2ccc(-c3ccccc3)cc2)c(C(F)(F)F)c1
A: 0.88

Q: Using the record for N[C@@H](COP(=O)(O)O)c1nc(-c2ccc(OCc3ccc(-c4ccccc4)cc3)c(C(F)(F)F)c2)c[nH]1 , report its log10 of Activity.
A: -0.19

Q: Give the measured log10 of Activity of CCCCCCCCOc1ccc(-c2cnc([C@@](C)(N)COP(=O)(O)O)s2)cc1C(F)(F)F .
A: -0.52

Q: I have this molecule here, CCCCCCCCOc1ccc(-c2cc([C@@](C)(N)COP(=O)(O)O)on2)cc1C(F)(F)F , and I need its recorded log10 of Activity.
A: -0.77

----------
Target: Sphingosine 1-phosphate receptor 1 (Homo sapiens, UniProt P21453)
Sequence (P21453 whole entry): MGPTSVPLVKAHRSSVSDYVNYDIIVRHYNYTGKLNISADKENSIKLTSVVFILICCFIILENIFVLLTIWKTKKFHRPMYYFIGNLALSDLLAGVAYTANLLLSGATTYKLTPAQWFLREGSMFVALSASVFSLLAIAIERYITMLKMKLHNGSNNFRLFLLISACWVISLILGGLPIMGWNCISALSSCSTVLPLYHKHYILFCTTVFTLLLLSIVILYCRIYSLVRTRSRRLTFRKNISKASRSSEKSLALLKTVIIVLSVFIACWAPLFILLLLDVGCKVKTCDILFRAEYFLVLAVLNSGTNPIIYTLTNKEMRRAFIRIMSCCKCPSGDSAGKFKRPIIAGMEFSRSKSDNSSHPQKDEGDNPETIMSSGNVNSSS
Experiment: Agonist activity at S1P1R (unknown origin) assessed as [33P] binding activity
Hi there, I'd appreciate the recorded Activity for every entry that follows.
The figure you give is taken to be in nM; do not add the unit.

Q: Find the recorded Activity belonging to C[C@](N)(COP(=O)(O)O)c1ncc(-c2ccc(OCc3ccc(-c4ccccc4)cc3)c(C(F)(F)F)c2)s1 and report it.
A: 0.73

Q: Given the entry Cc1oc([C@@](C)(N)COP(=O)(O)O)nc1-c1ccc(OCc2ccc(-c3ccccc3)cc2)c(C(F)(F)F)c1 , report its measured Activity.
A: 2.1

Q: // lookup Activity for C[C@](N)(COP(=O)(O)O)c1ncc(-c2ccc(OCc3ccc(-c4ccccc4)cc3)c(C(F)(F)F)c2)o1
A: 1.1
